Tested on: 317291-083-R-J1-PDC complex spheroids, viability
Protocol Description: Anticancer human tumor 317291-083-R-J1-PDC patient-derived soft tissue sarcoma cell line growth inhibition [GQUAD]
Condition Parameters: second compound 0.1 µM; first compound 0.316 µM; stronger effect = lower value
Note to self: class labels come from recorded viability, T/C, ranges listed here: bottom = under 10%, middle = from 10% up to 40%, top = 40% and over

Compound	Category Label
CC1COCCN1c1cc(-c2ccnn2C)c2ccnc(-c3ccn[nH]3)c2n1 (stereo not given) + CN(C)c1ccc(Nc2c3ccc(NC(=O)CCN4CCCC4)cc3nc3cc(NC(=O)CCN4CCCC4)ccc23)cc1	middle
CCc1c2c(nc3ccc(O)cc13)-c1cc3c(c(=O)n1C2)COC(=O)[C@]3(O)CC + Cc1[nH]c2ccc(F)cc2c1-c1nc2c3cccnc3c3ncccc3c2[nH]1	bottom
C#Cc1c(F)ccc2cc(O)cc(-c3ncc4c(N5CC6CCC(C5)N6)nc(OCC56CCCN5CC(F)C6)nc4c3F)c12 (stereo not given) + Cc1cnc(CNC(=O)c2c(=O)c3ccc(N4CCCN(C)CC4)nc3n3c2sc2ccccc23)cn1	top
CC(C)(O)C1CCC(Nc2ccc3ncc(-c4cccc(C(F)(F)F)c4)n3n2)CC1 (stereo not given) + Cc1cnc(CNC(=O)c2c(=O)c3ccc(N4CCCN(C)CC4)nc3n3c2sc2ccccc23)cn1	top
Cc1[nH]c2ccccc2c1CCNCc1ccc(/C=C/C(=O)NO)cc1 + CN(C)c1ccc(Nc2c3ccc(NC(=O)CCN4CCCC4)cc3nc3cc(NC(=O)CCN4CCCC4)ccc23)cc1	bottom
Cc1[nH]c2ccccc2c1CCNCc1ccc(/C=C/C(=O)NO)cc1 + Cc1cnc(CNC(=O)c2c(=O)c3ccc(N4CCCN(C)CC4)nc3n3c2sc2ccccc23)cn1	bottom
CCc1c2c(nc3ccc(O)cc13)-c1cc3c(c(=O)n1C2)COC(=O)[C@]3(O)CC + CN(C)c1ccc(Nc2c3ccc(NC(=O)CCN4CCCC4)cc3nc3cc(NC(=O)CCN4CCCC4)ccc23)cc1	bottom
COc1cc(C2c3cc4c(cc3C(OC3OC5COC(C)OC5C(O)C3O)C3COC(=O)C23)OCO4)cc(OC)c1O (stereo not given) + Cc1cnc(CNC(=O)c2c(=O)c3ccc(N4CCCN(C)CC4)nc3n3c2sc2ccccc23)cn1	middle
CC(C)n1c(=O)n(C)c2cnc3cc(F)c(-c4ccc(OCCCN5CCCCC5)nc4)cc3c21 + Cc1[nH]c2ccc(F)cc2c1-c1nc2c3cccnc3c3ncccc3c2[nH]1	top
Cn1ncnc1[C@H]1c2n[nH]c(=O)c3cc(F)cc(c23)N[C@@H]1c1ccc(F)cc1 + Cc1cnc(CNC(=O)c2c(=O)c3ccc(N4CCCN(C)CC4)nc3n3c2sc2ccccc23)cn1	middle
Cc1cccc(N(C)C(=O)C2C(O)CCN2c2nc(C)cc(C(F)(F)F)c2C#N)c1 (stereo not given) + CN(C)c1ccc(Nc2c3ccc(NC(=O)CCN4CCCC4)cc3nc3cc(NC(=O)CCN4CCCC4)ccc23)cc1	top
CC(=O)O[C@H]1C(=O)[C@@]2(C)[C@H]([C@H](OC(=O)c3ccccc3)[C@]3(O)C[C@H](OC(=O)[C@H](O)[C@@H](NC(=O)c4ccccc4)c4ccccc4)C(C)=C1C3(C)C)[C@]1(OC(C)=O)CO[C@@H]1C[C@@H]2O + CN(C)c1ccc(Nc2c3ccc(NC(=O)CCN4CCCC4)cc3nc3cc(NC(=O)CCN4CCCC4)ccc23)cc1	middle
COc1cc(C2c3cc4c(cc3C(OC3OC5COC(C)OC5C(O)C3O)C3COC(=O)C23)OCO4)cc(OC)c1O (stereo not given) + Cc1[nH]c2ccc(F)cc2c1-c1nc2c3cccnc3c3ncccc3c2[nH]1	top
COc1cccc2c1C(=O)c1c(O)c3c(c(O)c1C2=O)CC(O)(C(=O)CO)CC3OC1CC(N)C(O)C(C)O1 (stereo not given) + Cc1[nH]c2ccc(F)cc2c1-c1nc2c3cccnc3c3ncccc3c2[nH]1	middle
Cn1ncnc1[C@H]1c2n[nH]c(=O)c3cc(F)cc(c23)N[C@@H]1c1ccc(F)cc1 + Cc1[nH]c2ccc(F)cc2c1-c1nc2c3cccnc3c3ncccc3c2[nH]1	top
O=C(c1cc(Cc2n[nH]c(=O)c3ccccc23)ccc1F)N1CCN(C(=O)C2CC2)CC1 + Cc1[nH]c2ccc(F)cc2c1-c1nc2c3cccnc3c3ncccc3c2[nH]1	top
COc1cccc2c1C(=O)c1c(O)c3c(c(O)c1C2=O)CC(O)(C(=O)CO)CC3OC1CC(N)C(O)C(C)O1 (stereo not given) + Cc1cnc(CNC(=O)c2c(=O)c3ccc(N4CCCN(C)CC4)nc3n3c2sc2ccccc23)cn1	middle
CC[C@@]1(O)C(=O)OCc2c1cc1n(c2=O)Cc2cc3c(CN(C)C)c(O)ccc3nc2-1 + Cc1[nH]c2ccc(F)cc2c1-c1nc2c3cccnc3c3ncccc3c2[nH]1	middle
CC[C@@]1(O)C(=O)OCc2c1cc1n(c2=O)Cc2cc3c(CN(C)C)c(O)ccc3nc2-1 + Cc1cnc(CNC(=O)c2c(=O)c3ccc(N4CCCN(C)CC4)nc3n3c2sc2ccccc23)cn1	middle

* * *

Tested on: 317291-083-R-J1-PDC complex spheroids, viability
Protocol Description: Anticancer human tumor 317291-083-R-J1-PDC cell line growth inhibition [GQUAD];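 also: spheroids exposed to compounds for one week before readout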;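 as to viability, T/C: percent viability relative to DMSO vehicle wells taken as 100%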
Condition Parameters: second compound 0.316 µM; first compound 0.316 µM; stronger effect = lower value
Description: DNA G-quadruplex Stabilizer Agents in Combinations in Complex Spheroids A high-throughput screen of multi-cell type tumor spheroids was designed to identify active combinations of DNA G-quadruplex stabilizer agents and targeted small molecules. […] Compounds. […] If the clinical Cmax for an agent had not been determined, the highest concentration tested was 10 microM. […]

Molecule	viability, T/C / %
CC1COCCN1c1cc(C2(O)CC3CCC(C2)O3)c2cnn(-c3ccn[nH]3)c2n1 (stereo not drawn) + CN(C)c1ccc(Nc2c3ccc(NC(=O)CCN4CCCC4)cc3nc3cc(NC(=O)CCN4CCCC4)ccc23)cc1	12.6
O=C(c1cc(Cc2n[nH]c(=O)c3ccccc23)ccc1F)N1CCN(C(=O)C2CC2)CC1 + CN(C)c1ccc(Nc2c3ccc(NC(=O)CCN4CCCC4)cc3nc3cc(NC(=O)CCN4CCCC4)ccc23)cc1	83.8
COc1ncnc(C2CC2)c1-c1ncc2cnn(Cc3ccc(-c4nc(C(F)(F)F)cn4C(C)C)cc3)c2n1 + Cc1[nH]c2ccc(F)cc2c1-c1nc2c3cccnc3c3ncccc3c2[nH]1	50.4
C=CC(=O)N1CCN(c2nc(=O)n(-c3c(C)ccnc3C(C)C)c3nc(-c4c(O)cccc4F)c(F)cc23)C(C)C1 (stereo not drawn) + CN(C)c1ccc(Nc2c3ccc(NC(=O)CCN4CCCC4)cc3nc3cc(NC(=O)CCN4CCCC4)ccc23)cc1	73.2
Nc1ccn(C2OC(CO)C(O)C2(F)F)c(=O)n1 (stereo not drawn) + Cc1[nH]c2ccc(F)cc2c1-c1nc2c3cccnc3c3ncccc3c2[nH]1	13.1
O=c1[nH]cc(F)c(=O)[nH]1 + CN(C)c1ccc(Nc2c3ccc(NC(=O)CCN4CCCC4)cc3nc3cc(NC(=O)CCN4CCCC4)ccc23)cc1	83.2
CC(C)(O)C1CCC(Nc2ccc3ncc(-c4cccc(C(F)(F)F)c4)n3n2)CC1 (stereo not drawn) + Cc1[nH]c2ccc(F)cc2c1-c1nc2c3cccnc3c3ncccc3c2[nH]1	61.6
CC1COCCN1c1cc(C2(S(C)(=N)=O)CC2)nc(-c2ccnc3[nH]ccc23)n1 (stereo not drawn) + Cc1[nH]c2ccc(F)cc2c1-c1nc2c3cccnc3c3ncccc3c2[nH]1	88.7
CC[C@@]1(O)C(=O)OCc2c1cc1n(c2=O)Cc2cc3c(CN(C)C)c(O)ccc3nc2-1 + Cc1cnc(CNC(=O)c2c(=O)c3ccc(N4CCCN(C)CC4)nc3n3c2sc2ccccc23)cn1	9.62
O=C(c1cc(Cc2n[nH]c(=O)c3ccccc23)ccc1F)N1CCN(C(=O)C2CC2)CC1 + Cc1[nH]c2ccc(F)cc2c1-c1nc2c3cccnc3c3ncccc3c2[nH]1	101
O=C(NO)c1cnc(N2CCN(S(=O)(=O)c3ccc4ccccc4c3)CC2)nc1 + Cc1[nH]c2ccc(F)cc2c1-c1nc2c3cccnc3c3ncccc3c2[nH]1	6.53
C#Cc1c(F)ccc2cc(O)cc(-c3ncc4c(N5CC6CCC(C5)N6)nc(OCC56CCCN5CC(F)C6)nc4c3F)c12 (stereo not drawn) + Cc1[nH]c2ccc(F)cc2c1-c1nc2c3cccnc3c3ncccc3c2[nH]1	79.3
CC1COCCN1c1cc(C2(O)CC3CCC(C2)O3)c2cnn(-c3ccn[nH]3)c2n1 (stereo not drawn) + Cc1cnc(CNC(=O)c2c(=O)c3ccc(N4CCCN(C)CC4)nc3n3c2sc2ccccc23)cn1	26.7

* * *

System: 317291-083-R-J1-PDC complex spheroids, viability
Protocol Description: Anticancer human tumor 317291-083-R-J1-PDC cell line growth inhibition [GQUAD];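 also: spheroids exposed to compounds for one week before readout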
Condition Parameters: curve of first compound; second compound 0.0316 µM
Items are presented alongside their recorded log10 IC50.
Measured Quantity: log10 IC50 (log10 of the value in nM)

Compound	Observed
CCCS(=O)(=O)Nc1ccc(F)c(C(=O)c2c[nH]c3ncc(-c4ccc(Cl)cc4)cc23)c1F + CN(C)c1ccc(Nc2c3ccc(NC(=O)CCN4CCCC4)cc3nc3cc(NC(=O)CCN4CCCC4)ccc23)cc1	3.62
COc1ccc([C@@H](O)c2cc(-c3ncnc4cc(N5CCOCC5)ccc34)c(F)cc2Cl)nn1 + Cc1cnc(CNC(=O)c2c(=O)c3ccc(N4CCCN(C)CC4)nc3n3c2sc2ccccc23)cn1	3.31
O=C(c1cc(Cc2n[nH]c(=O)c3ccccc23)ccc1F)N1CCN(C(=O)C2CC2)CC1 + CN(C)c1ccc(Nc2c3ccc(NC(=O)CCN4CCCC4)cc3nc3cc(NC(=O)CCN4CCCC4)ccc23)cc1	3.93
C=CCn1c(=O)c2cnc(Nc3ccc(N4CCN(C)CC4)cc3)nc2n1-c1cccc(C(C)(C)O)n1 + CN(C)c1ccc(Nc2c3ccc(NC(=O)CCN4CCCC4)cc3nc3cc(NC(=O)CCN4CCCC4)ccc23)cc1	2.17
Nc1ccn(C2OC(CO)C(O)C2(F)F)c(=O)n1 (stereo not given) + Cc1[nH]c2ccc(F)cc2c1-c1nc2c3cccnc3c3ncccc3c2[nH]1	1.65
CC(C)(O)C1CCC(Nc2ccc3ncc(-c4cccc(C(F)(F)F)c4)n3n2)CC1 (stereo not given) + Cc1cnc(CNC(=O)c2c(=O)c3ccc(N4CCCN(C)CC4)nc3n3c2sc2ccccc23)cn1	2.71
CC1COCCN1c1cc(-c2ccnn2C)c2ccnc(-c3ccn[nH]3)c2n1 (stereo not given) + Cc1[nH]c2ccc(F)cc2c1-c1nc2c3cccnc3c3ncccc3c2[nH]1	1.95

src = PubChem BioAssay AID2060497
